Molecular target: BCL-XL (Homo sapiens, UniProt Q07817)
Construct: endogenous in cells; host or cells: MOLT-4
Sequence (Q07817 whole entry): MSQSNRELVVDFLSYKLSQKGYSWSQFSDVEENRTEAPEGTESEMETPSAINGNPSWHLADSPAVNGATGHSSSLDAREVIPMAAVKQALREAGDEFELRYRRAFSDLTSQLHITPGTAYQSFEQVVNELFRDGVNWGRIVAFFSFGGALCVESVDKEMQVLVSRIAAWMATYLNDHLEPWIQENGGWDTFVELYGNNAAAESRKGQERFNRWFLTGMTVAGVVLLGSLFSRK
Experiment: Bcl-xL ELISA degradation in MOLT-4 cells, 6 h
Type: cell-based
Conditions: read-out: Bcl-xL ELISA in MOLT-4 degradation 6 h: Mean external-Abs DC50
Procedure: The letter codes for BCL-XL DC50 include: A (<0.01 μM); B (0.01-0.1 μM); C (>[…]); D (>0.5-1.0 μM); and E (>1.0 μM). The letter codes for Dmax % include A (>75%); B (50 to 75%); C (<50%).
MEASURED_ATTRIBUTE: DC50

Example entries and their recorded answers appear below.
compound="Cc1ncsc1-c1ccc([C@H](C)NC(=O)[C@@H]2C[C@@H](O)CN2C(=O)[C@@H](NC(=O)C2CCCN(c3ccc(S(=O)(=O)NC(=O)c4nc(N5CCc6cccc(C(=O)Nc7nc8ccccc8s7)c6C5)ccc4-c4cnn(CC5CCCCC5)c4C)cc3)C2)C(C)(C)C)cc1 (some centres unmarked)" reported_result="< 10 nM"
compound="Cc1ncsc1-c1ccc([C@H](C)NC(=O)[C@@H]2C[C@@H](O)CN2C(=O)C(c2cc(OC3CN(c4ccc(S(=O)(=O)NC(=O)c5nc(N6CCc7cccc(C(=O)Nc8nc9ccccc9s8)c7C6)ccc5-c5cnn(CC6CCCCC6)c5C)cc4)C3)no2)C(C)C)cc1 (some centres unmarked)" reported_result="10 to 100 nM"
compound=Cc1ncsc1-c1ccc([C@H](C)NC(=O)[C@@H]2C[C@@H](O)CN2C(=O)[C@@H](NC(=O)CCCCCS(=O)(=O)NC(=O)c2nc(N3CCc4cccc(C(=O)Nc5nc6ccccc6s5)c4C3)ccc2-c2cccc3c2cnn3C(C)C)C(C)(C)C)cc1 reported_result="500 to 1000 nM"
compound=Cc1ncsc1-c1ccc(CNC(=O)[C@@H]2C[C@@H](O)CN2C(=O)[C@@H](NC(=O)C2CCN(c3ccc(S(=O)(=O)NC(=O)c4nc(N5CCc6cccc(C(=O)Nc7nc8ccccc8s7)c6C5)ccc4-c4cnn(CC5CCCCC5)c4C)c(F)c3)CC2)C(C)(C)C)cc1 reported_result="< 10 nM"
compound=Cc1ncsc1-c1ccc([C@H](C)NC(=O)[C@@H]2C[C@@H](O)CN2C(=O)[C@@H](NC(=O)N2CC3(CC(N4CCN(C(=O)c5nc(N6CCc7cccc(C(=O)Nc8nc9ccccc9s8)c7C6)ccc5-c5cnn(CC6CCCCC6)c5C)CC4)C3)C2)C(C)(C)C)cc1 reported_result="> 1000 nM"
compound="Cc1ncsc1-c1ccc(CNC(=O)[C@@H]2C[C@@H](O)CC2C(=O)[C@@H](NC(=O)C2(F)CC2)C(C)(C)C)c(OCCCCCCNC(=O)c2nc(N3CCc4cccc(C(=O)Nc5nc6ccccc6s5)c4C3)ccc2-c2cnn(CC3CCCCC3)c2C)c1 (some centres unmarked)" reported_result="> 1000 nM"
compound=Cc1ncsc1-c1ccc([C@H](C)NC(=O)[C@@H]2C[C@@H](O)CN2C(=O)[C@@H](NC(=O)CN2CC(N3CCC(NC(=O)c4nc(N5CCc6cccc(C(=O)Nc7nc8ccccc8s7)c6C5)ccc4-c4cnn(CC5CCCCC5)c4C)CC3)C2)C(C)(C)C)cc1 reported_result="100 to 500 nM"
compound=Cc1ncsc1-c1ccc([C@H](C)NC(=O)[C@@H]2C[C@H](O)CN2C(=O)[C@@H](NC(=O)CCCCCS(=O)(=O)NC(=O)c2nc(N3CCc4cccc(C(=O)Nc5nc6ccccc6s5)c4C3)ccc2-c2cnn(CC34CC5CC(CC(C5)C3)C4)c2C)C(C)(C)C)cc1 reported_result="10 to 100 nM"
compound=Cc1ncsc1-c1ccc(CNC(=O)[C@@H]2C[C@@H](O)CN2C(=O)[C@@H](NC(=O)C2(F)CC2)C(C)(C)C)c(OCCCCCS(=O)(=O)NC(=O)c2nc(N3CCc4cccc(C(=O)Nc5nc6ccccc6s5)c4C3)ccc2-c2cnn(CC34CC5CC(CC(C5)C3)C4)c2C)c1 reported_result="10 to 100 nM"
compound=Cc1ncsc1-c1ccc(CNC(=O)[C@@H]2C[C@@H](O)CN2C(=O)[C@@H](NC(=O)C2(F)CC2)C(C)(C)C)c(N2CCC(N3CCC(NC(=O)c4nc(N5CCc6cccc(C(=O)Nc7nc8ccccc8s7)c6C5)ccc4-c4cnn(CC5CCCCC5)c4C)CC3)CC2)c1 reported_result="> 1000 nM"

From here, focus on the item given below.
Fill: DC50 (BCL-XL (Homo sapiens, UniProt Q07817)) for this compound Cc1cc(N(C)c2ccc(-c3cnn(CC45CC6CC(CC(C6)C4)C5)c3C)c(C(=O)NS(=O)(=O)CCCCCc3cccc4c3n(C)c(=O)n4C3CCC(=O)NC3=O)n2)nnc1Nc1nc2ccccc2s1 (centres unmarked) < 10 nM

---

biological target: BCL-XL (Homo sapiens); construct: endogenous in cells; host or cells: MOLT-4; test: Bcl-xL ELISA degradation in MOLT-4 cells, 6 h; format: cell-based; conditions: read-out: Bcl-xL ELISA in MOLT-4 degradation 6 h: Mean external-Abs DC50
# reported DC50; entries follow

given_smiles=Cc1ncsc1-c1ccc([C@H](C)NC(=O)[C@@H]2C[C@@H](O)CN2C(=O)[C@@H](NC(=O)C2CCN(c3ccc(S(=O)(=O)NC(=O)c4nc(N5CCc6cccc(C(=O)Nc7nc8ccccc8s7)c6C5)ccc4-c4cnn(CC5CCCCC5)c4C)cc3COP(=O)(O)O)CC2)C(C)(C)C)cc1 reported_result="100 to 500 nM"
given_smiles=Cc1ncsc1-c1ccc([C@H](C)NC(=O)[C@@H]2C[C@@H](O)CN2C(=O)[C@@H](NC(=O)CN(C)CCCS(=O)(=O)NC(=O)c2nc(N3CCc4cccc(C(=O)Nc5nc6ccccc6s5)c4C3)ccc2-c2cnn(CC3CCCCC3)c2C)C(C)(C)C)cc1 reported_result="< 10 nM"

From here, focus on the item given below.
Report measured DC50; entry is "Cc1ncsc1-c1ccc([C@H](C)NC(=O)[C@@H]2C[C@@H](O)CN2C(=O)[C@@H](NC(=O)C2CN(c3ccc(S(=O)(=O)NC(=O)c4nc(N5CCc6cccc(C(=O)Nc7nc8ccccc8s7)c6C5)ccc4-c4cnn(CC5CCCCC5)c4C)cc3)C2)C(C)(C)C)cc1" 10 to 100 nM

---

molecular target: BCL-XL (Homo sapiens, UniProt Q07817); construct: endogenous in cells; host or cells: MOLT-4; test: BCL-XL degradation assay, western blot in MOLT-4 cells, 16 h; format: cell-based; conditions: western blot, MOLT-4 cells, 16 h; read-out: Bcl-xL WB in MOLT-4 degradation 16 h: Average Dmax %
MEASURED_ATTRIBUTE: Dmax

Fill: Dmax (BCL-XL (Homo sapiens, UniProt Q07817)) for this compound Cc1ncsc1-c1ccc(CNC(=O)[C@@H]2C[C@@H](O)CN2C(=O)[C@@H](NC(=O)C2(F)CC2)C(C)(C)C)c(O[C@H]2C[C@H](C(=O)N3CCN(CC[C@H](CSc4ccccc4)Nc4ccc(S(=O)(=O)NC(=O)c5ccc(N6CCN(CC7=C(c8ccc(Cl)cc8)CCC(C)(C)C7)CC6)cc5)cc4S(=O)(=O)C(F)(F)F)CC3)C2)c1 [I-91] < 50%

Fill: Dmax (BCL-XL (Homo sapiens, UniProt Q07817)) for this compound Cc1ncsc1-c1ccc([C@H](C)NC(=O)[C@@H]2C[C@@H](O)CN2C(=O)[C@@H](NC(=O)N2CCC(CN3CCN(CC#Cc4ccc(OCCCc5sc(N6CCc7cccc(C(=O)Nc8nc9ccccc9s8)c7C6)nc5C(=O)O)c(F)c4)CC3)CC2)C(C)(C)C)cc1 [I-72] < 50%

Fill: Dmax (BCL-XL (Homo sapiens, UniProt Q07817)) for this compound Cc1ncsc1-c1ccc(CNC(=O)[C@@H]2C[C@@H](O)CN2C(=O)[C@@H](NC(=O)CCCC(=O)N(C)CCN(C)c2cc3c(c(C(=O)Nc4nc5ccccc5s4)c2)CN(c2ccc(-c4cnn(CC5CCCCC5)c4C)c(C(=O)O)n2)CC3)C(C)(C)C)cc1 [I-109] < 50%

Fill: Dmax (BCL-XL (Homo sapiens, UniProt Q07817)) for this compound Cc1ncsc1-c1ccc([C@H](C)NC(=O)[C@@H]2C[C@@H](O)CN2C(=O)[C@@H](NC(=O)CCCCCCC(=O)N2CCN(C[C@@]3(C)CCC(c4ccc(Cl)cc4)=C(CN4CCN(c5ccc(C(=O)NS(=O)(=O)c6ccc(N[C@H](CCN7CCOCC7)CSc7ccccc7)c(S(=O)(=O)C(F)(F)F)c6)cc5)CC4)C3)CC2)C(C)(C)C)cc1 [I-396] > 75%

Fill: Dmax (BCL-XL (Homo sapiens, UniProt Q07817)) for this compound Cc1ncsc1-c1ccc([C@H](C)NC(=O)[C@@H]2C[C@@H](O)CN2C(=O)[C@@H](NC(=O)CCCCCC(=O)N(C)CCCc2cccc(F)c2OCCCc2sc(N3CCc4cccc(C(=O)Nc5nc6ccccc6s5)c4C3)nc2C(=O)O)C(C)(C)C)cc1 [I-10] > 75%

Fill: Dmax (BCL-XL (Homo sapiens, UniProt Q07817)) for this compound Cc1ncsc1-c1ccc(CNC(=O)[C@@H]2C[C@@H](O)CN2C(=O)[C@@H](NC(=O)C2(F)CC2)C(C)(C)C)c(O[C@H]2CC[C@@H](C(=O)N3CCN(CC[C@H](CSc4ccccc4)Nc4ccc(S(=O)(=O)NC(=O)c5ccc(N6CCN(CC7=C(c8ccc(Cl)cc8)CCC(C)(C)C7)CC6)cc5)cc4S(=O)(=O)C(F)(F)F)CC3)CC2)c1 [I-90] < 50%

These entries and their values trace back to patent US20250197387A1.
